# Tested on: MS2 coat protein
# Measurement Notes: apparent KD of MS2 coat protein; designed switch direction (-1 OFF switch, 1 ON switch): -1; higher = weaker reporter binding
# Measurement Setup: input ligand: microRNA oligo, concentration not stated
The label depends only on apparent KD of MS2 coat protein: Y if it is at least 20 nM, N if it is smaller.

Worked examples, 4 sequences total:
| Sequence Content | Assigned Category |
| --- | --- |
| GCUUGUGGGCAAGGAUAUCCUACGUUGUUCUGGUUCGUGUCUGUCACAUGAGGAUCACCCAUGUGGGAGAAGGUGCCUUUGGUG [Design 62] (Eterna round: R96, puzzle: Exclusion NG 2) | N |
| GCCUGCUGGCGAGGAUAUCCUGUGCGGUUCCGGCUCGUGUCUGUUACAUGAGGAUCACCCAUGUGGGAGAAGGUGUCUGUGGCC [Design 99] (Eterna round: R96, puzzle: Exclusion NG 2) | N |
| UCUUGCUGGCGAGGAUAUCCUGUGCGGUUCCGGCUCGUGUCUGUUACAUGAGGAUCACCCAUGUGGGAGAAGGUGUCUGUGGCC [Design 97] (Eterna round: R96, puzzle: Exclusion NG 2) | N |
| AGCGUGGAGACAGGAUAUGAGAAUAGAUAGAACUCAGAAGGGUCACAUGAGGAUCACCCAUGUAAAGUCUUGAGGCUGCGUGGU [Prohibition 7 - Jieux - Exclusion NG 1] (Eterna round: R96, puzzle: Exclusion NG 1) | Y |

query: Does AACAGUACAGGAUAUACAUGAGGAUCACCCAUGUGAAGAAUAAGUGGAGUACCACAAAGUAGAAGGGUACUGGA [Ruby 88] (Eterna round: R96, puzzle: Exclusion 3) have a reported apparent KD of MS2 coat protein of at least 20 nM?
result: Y

query: Next sequence: UAUCAUCAUGUAGGAUAUGCGUGGCGAAGCUAUGCAGAAGGACAUGAGGAUCACCCAUGUUCUUGCGUCUGCGUACAGAUGCAA [Mat - Exclusion NG 1 - Mod of JL - D71] (Eterna round: R96, puzzle: Exclusion NG 1)
result: Y

query: Next sequence: ACAUGUAAUGCAGGAUAUGGGACACAUGAGGAUCACCCAUGUUACCAUAUGUAAUGCUAAGAGUCUCAGAAGGGUAUGUACAUG [Ex NG2 #47] (Eterna round: R96, puzzle: Exclusion NG 2)
result: N

query: Next sequence: AUAAUACAUGUAGGAUAUGCGUGGCGAAGCUAUGCAGAAGGACAUGAGGAUCACCCAUGUGCUAGCGUCUGCGUACAGAUGCUA [JL eng1 1.35 mod 3] (Eterna round: R96, puzzle: Exclusion NG 1)
result: Y

query: Next sequence: AGAUGCUCAAGUCGACAUGAGGAUCACCCAUGUACAGUUAACGAGGAUAUCCGAGAUAAAUAAUAGGAGAAGGCGUGAUCAUGA [Ex NG3 #3] (Eterna round: R96, puzzle: Exclusion NG 3)
result: Y

###

# Tested on: MS2 coat protein
# Measurement Notes: apparent KD of MS2 coat protein; designed switch direction (-1 OFF switch, 1 ON switch): -1; higher = weaker reporter binding
# Measurement Setup: input ligand: FMN 200 uM
Endpoint: apparent KD of MS2 coat protein (µM)
Response body: numeric value in µM, unit text excluded.

Example entries and their recorded answers appear below.
| Sequence Content | System Tested | apparent KD of MS2 coat protein / µM |
| --- | --- | --- |
| ACAUGUCAUUGAGGAUAUUGCACACAUGAGGAUCACCCAUGUAAACGGAUGCUCUUACGUGGGUUCGAGAAGGCGAUGUACAUU [Ex NG2 #94] (Eterna round: R96, puzzle: Exclusion NG 2) | MS2 coat protein | 0.156 |
| GCACGGAGUGUAGGAUAUUAGUGCGAUUAGCACUGAGAAGGACAUGAGGAUCACCCAUGUUCCUCGAUAAAAUACCUUCCGUGC [Eli exng1 - 041] (Eterna round: R96, puzzle: Exclusion NG 1) | MS2 coat protein | 0.0132 |
| GCAGCAUAGUCGGAAACGACAGAACAUGAGGAUCACCCAUGUUAGGAUAUGGUCUGGAUUACAGGCCAGAAGGGACAAAGCUGC [Eli exng3 - 009] (Eterna round: R96, puzzle: Exclusion NG 3) | MS2 coat protein | 0.0348 |
| GCAGCAAACUCUAUUAAAACCACAUGAGGAUCACCCAUGUCUCAGGAUAUGGUCUGGAUUACAGGCCAGAAGGGAGAAAGCUGC [Eli exng3 - 054] (Eterna round: R96, puzzle: Exclusion NG 3) | MS2 coat protein | 0.015 |
| AUGCCACAUGAGGAUCACCCAUGUGAGGAUAUGCUAGUAUUCCUAACGGCCGAUGCAGGCAGAAGGCGCUCGGG [Eternabot (L1) Solution 73] (Eterna round: R97, puzzle: Exclusion 1) | MS2 coat protein | 0.0195 |

query: Sample AACCUGAGGCUUUGCUUUAGGUGUACAUGAGGAUCACCCAUGUAGGAUAUGGUAGGCUUUGCUUACCAGAAGGACAUUAUGAUG [JL ENG3 1.17] (Eterna round: R96, puzzle: Exclusion NG 3) — what was its apparent KD of MS2 coat protein?
result: 0.0751

###

# Tested on: K4 kissing-loop RNA reporter
# Measurement Notes: apparent KD of K4 kissing-loop reporter; higher = weaker reporter binding
# Measurement Setup: Eterna round: R107; input ligand: FMN 200 uM
The label depends only on apparent KD of K4 kissing-loop reporter: Yes if it is at least 300 nM, No if it is smaller.

Worked examples, 6 sequences total:
| Sequence Content | Assigned Category |
| --- | --- |
| GCGAACAUUCGCAGUGAUGUUGCGACGGAAGGAGCGCGUGAAAACGCAGGUAGGUCGCCGACAUACUUAAUUUUACAGUGUUCGC [Arginine A K4 29] | No |
| GGAUAGGACAGAGGAUAUCCUAAAGAGGCAAGAAUAACUUGUCUCAAAUGGAUGACCAGUGAUGUUGGAGAAGGCUGUCCUAUCG [FmnBX 6 - #SwitchBubble #StaticStem] | Yes |
| UGACUGGACUGAAGGAGCGCUGAACUCCUAGUGAUGUUAGGACAACGAGACAAAGUCUCGCGGCAGGUAGGUCGCAGUCUAGUCU | No |
| CGUGAUGUAUGGCGGUUUGUCACUUAGGAUCAGGAUAUAUAAACAAAUAGAAGGGAUGGCGGAGUGAUGUUCCGCCGGCCGCCAU [FMN A Exl V8] | No |
| GGAUCCACCAGUGAUGUUGGAGAAAACUCCAAGGAUAUGACGAAAGUCAGAAGGUGGUAGACUGGACAAAGUCCGGUCGGAUCCA [FmnA 23 #SwitchBubble #K4Early] | Yes |
| GCACGUACCCGAAGGAGCGUGCAAGAAUCGUAGUGAUGUUACGGAGAGUGUCACGCCGUCGCACAGGUAGGUCGCGGGUACGUGC | No |

query: Does GCGUAUGAUGCUCAAAGAGUAUCUCCCGAUACCAGUAUGGAAACAUACCCUUGGCAGCGGGUAACUGCCCAGUGAUGUUGGACGC [Theophylline A K4 9] have a reported apparent KD of K4 kissing-loop reporter of at least 300 nM?
result: Yes

query: Next sequence: AAAACUAUCAGAAGGAGCGUGGAAUAUUCAUCUGUAUUUAAUACGAGUGAUGUUCGUAAUUCACAGGUAGGUCGCUGAUCAAUAA [whbob_Ex_Arginine_B_2th154]
result: No

query: Next sequence: GCAACAUUGGUAGGAUAUCAUUCUGAGUGAUGUUCAGGGUUCAGCUAACGAAAGUUAGUUGUACCAUGAGAAGGACUAAUGUUGC [Omei KL FMN B SS A v3]
result: Yes

query: Next sequence: GCCGUACGCACGGAUACCAGCACUCGGUGAGUGAUGUUCACGGUGUGGUAUUCAUCGGGCUGCCCUUGGCAGCCGUGCGUACGGC
result: No

query: Next sequence: GCCGUAGAUGGAAGGAGCGUGUCAAAGUGAUGUUUUGAUUAACUCCCUUAGGGAAAGAUGGCACAGGUAGGUCGCCAUCUACGGC
result: No

query: Next sequence: AAAUAGAUCAGUCAUCCAGUGAUGUUGGAAGGAGCGUGCGAAAGCACAGGUAGGUCGCCGAAAUAAAAGUGGCUGAUCAAAAUAA
result: No

###

Listed sequences paired with reported apparent KD of K4 kissing-loop reporter
# System: K4 kissing-loop RNA reporter;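 note: bound reporter read as fluorescence of individual clusters on recovered sequencing chips by microscopy, with normalized cluster intensities fitted with a binding model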
# Measurement Notes: apparent KD of K4 kissing-loop reporter; higher = weaker reporter binding
# Measurement Setup: Eterna round: R107; input ligand: arginine 13.2 mM
Response body: numeric value in µM, unit text excluded.

query: Sample UGACUGGACUGAAGGAGCGAGCGAGACAAAGUCUCGAAAAUUCAGUGAUGUUGAAAUAUAACUCAGGUAGGUCGCAGUCUAGUCU [ArgBS 4 #SwitchBubble #StaticStem] — what was its apparent KD of K4 kissing-loop reporter?
result: 0.303

query: Next sequence: UGACUGGACUGAAGGAGCGUUGAAGGAGCGUAAGGAGUGAUGUUCCAUACAGGUAGGUCGCAGCAGGUAGGUCGCAGUCUAGUCU [ArgBS 26 #DoubleAptamer #SwitchBubble]
result: 0.245

query: Next sequence: UGAUACCAGACUGAUACCAGCGAGUGAUGUUCGUUGAAAUCAGGGUCAAAGACCCUGUCUCGCCCUUGGCAGCAGUCUGGUAUCU [TheoBX 22 #SwitchBubble #StaticStem]
result: 0.704

query: Next sequence: UGUAUCAUCUAAGGAUAUAUCAUGUGAUGCACCGAGUAUCGCAUCAAUUCUGAGUGAUGUUCAGGUAUAGAAGGUAGAUGAUGCA [FMN B SS t2]
result: 0.178

query: Next sequence: AAACGUCGGAAGUGAUGUUGAUGACGUAGUAAGGAUAUUGGACGCGCAAGAAGGUACUGGCAAACUAAGGACAUCCUGGAUAUUC [theeternabot_exclusion_KL_FMN_A_47]
result: 0.251

query: Next sequence: AAGUAGCUCUCGGCCGCCACUCCUCAGUGAUGUUGAGAUAUUAACUGCCAAUUGGCGUAUUUAAAGAGGACCGGGAGAGCUACAA [AK2 SS Tryptophan B]
result: 0.389
